- Target Entity: GRK5 (Homo sapiens)
- Sequence (P34947 whole entry): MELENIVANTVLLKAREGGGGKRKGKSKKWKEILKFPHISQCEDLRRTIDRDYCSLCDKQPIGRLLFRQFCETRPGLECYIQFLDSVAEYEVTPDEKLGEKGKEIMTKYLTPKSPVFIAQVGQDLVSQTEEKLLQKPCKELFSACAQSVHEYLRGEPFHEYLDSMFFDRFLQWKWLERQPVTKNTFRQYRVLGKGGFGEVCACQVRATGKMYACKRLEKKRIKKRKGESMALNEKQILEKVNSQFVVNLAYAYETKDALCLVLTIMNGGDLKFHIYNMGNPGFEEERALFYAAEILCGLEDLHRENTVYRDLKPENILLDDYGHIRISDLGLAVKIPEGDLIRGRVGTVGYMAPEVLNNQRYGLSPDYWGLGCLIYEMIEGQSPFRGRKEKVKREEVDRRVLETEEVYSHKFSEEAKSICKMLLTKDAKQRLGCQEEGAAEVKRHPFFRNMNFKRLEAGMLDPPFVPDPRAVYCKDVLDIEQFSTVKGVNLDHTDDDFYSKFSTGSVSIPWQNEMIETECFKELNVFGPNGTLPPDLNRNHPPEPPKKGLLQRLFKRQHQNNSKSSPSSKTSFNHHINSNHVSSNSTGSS
- Assay Method Text: GRK5 phosphorylation of light-activated rhodopsin
- Assay type: biochemical
Square brackets hold non-standard residues; d marks the D form. Peptide text beside a SMILES is read from it. Nle = CCCC[C@H](N)C(=O)O
Test Readout: pIC50
FYI, pIC50 means -log10 of a concentration in mol per litre.

INSERT INTO assay_data (molecule, readout_number) VALUES
  ('CCCC[C@H](NC(=O)[C@H](CO)NC(C)=O)C(=O)N[C@@H](Cc1ccccc1)C(=O)N[C@@H](Cc1ccccc1)C(=O)N[C@@H](CC(=O)O)C(=O)N[C@@H](C)C(=O)N[C@@H](Cc1ccccc1)C(=O)N[C@@H](CC(C)C)C(=O)N[C@@H](CCC(N)=O)C(=O)N[C@@H](Cc1c[nH]c2ccccc12)C(=O)N[C@@H](CCCCN)C(=O)N[C@@H](Cc1c[nH]c2ccccc12)C(=O)N[C@@H](CC(C)C)C(=O)N[C@@H](CCC(=O)O)C(=O)N[C@@H](CCCNC(=N)N)C(N)=O [Peptide R169A] (Ac-S[Nle]FFDAFLQWKWLER-NH2)', 5.14),
  ('CCCC[C@H](NC(=O)[C@H](CO)NC(C)=O)C(=O)N[C@@H](Cc1ccccc1)C(=O)N[C@@H](Cc1ccccc1)C(=O)N[C@@H](CC(=O)O)C(=O)N[C@@H](CCCNC(=N)N)C(=O)N[C@@H](Cc1ccccc1)C(=O)N[C@@H](CC(C)C)C(=O)N[C@@H](CCC(N)=O)C(=O)N[C@@H](Cc1c[nH]c2ccccc12)C(=O)N[C@@H](CCCCN)C(=O)N[C@@H](Cc1c[nH]c2ccccc12)C(N)=O [Peptide T3] (Ac-S[Nle]FFDRFLQWKW-NH2)', 5.21),
  ('CCCC[C@H](NC(=O)[C@H](CO)NC(C)=O)C(=O)N[C@@H](Cc1ccccc1)C(=O)N[C@@H](Cc1ccccc1)C(=O)N[C@@H](CC(=O)O)C(=O)N[C@@H](CCCNC(=N)N)C(=O)N[C@@H](Cc1ccccc1)C(=O)N[C@@H](CC(C)C)C(=O)N[C@@H](CCC(N)=O)C(=O)N[C@@H](Cc1c[nH]c2ccccc12)C(=O)N[C@@H](CCCCN)C(=O)N[C@@H](Cc1c[nH]c2ccccc12)C(=O)N[C@@H](CC(C)C)C(=O)N[C@@H](CCC(=O)O)C(=O)N[C@@H](CCCNC(=N)N)C(N)=O [α9 (164–178)] (Ac-S[Nle]FFDRFLQWKWLER-NH2)', 4.80);

Let's switch to this molecule now.
input: // pIC50 lookup, key: CCCC[C@H](NC(=O)[C@H](CO)NC(C)=O)C(=O)N[C@@H](Cc1ccccc1)C(=O)N[C@@H](Cc1ccccc1)C(=O)N[C@@H](CC(=O)O)C(=O)N[C@@H](CCCNC(=N)N)C(=O)N[C@@H](Cc1ccccc1)C(=O)N[C@@H](CC(C)C)C(=O)N[C@@H](C)C(=O)N[C@@H](Cc1c[nH]c2ccccc12)C(=O)N[C@@H](CCCCN)C(=O)N[C@@H](Cc1c[nH]c2ccccc12)C(=O)N[C@@H](CC(C)C)C(=O)N[C@@H](CCC(=O)O)C(=O)N[C@@H](CCCNC(=N)N)C(N)=O [Peptide Q172A] (Ac-S[Nle]FFDRFLAWKWLER-NH2)
output: 4.82

This collection of values is drawn from paper PMC4269301.
